- SYSTEM_NAME: von Willebrand factor full length (Homo sapiens, UniProt P04275 SEQ:764-2813)
- PROTOCOL_NOTES: filter
- ASSAY_SETUP: tags: Calbiochem 681300
MEASURED_PROPERTY: Kd (nM)
Answer in nM, number only, no unit symbol.

Ask: Field request: Kd | item: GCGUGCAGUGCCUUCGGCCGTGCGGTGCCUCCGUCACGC (mixed, 2'-OMe at 1-4,8-18,20,22,27,28,30,33,34,36-39, rest deoxy; PS between 25 and 26; 3'-idT) [ARC1373]
Result: 7.1

Ask: # get_value(readout='Kd', item= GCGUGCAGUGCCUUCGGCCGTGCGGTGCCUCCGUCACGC (mixed, 2'-OMe at 1-4,8-18,20,22,27,28,30,33,34,36-39, rest deoxy; PS between 26 and 27; 3'-idT) [ARC1374] )
Result: 9.5

Ask: Give the measured Kd of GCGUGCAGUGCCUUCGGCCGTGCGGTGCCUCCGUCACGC (mixed, 2'-OMe at 1-4,8-18,20,22,27,28,30,33,34,36-39, rest deoxy; PS between 7 and 8; 3'-idT) [ARC1365] .
Result: 10.8

Ask: Look up Kd: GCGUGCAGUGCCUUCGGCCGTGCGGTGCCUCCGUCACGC (mixed, 2'-OMe at 1-4,8-18,20,22,27,28,30,33,34,36-39, rest deoxy; PS between 21 and 22; 3'-idT) [ARC1369]
Result: 16.3

Ask: Tell me the measured Kd of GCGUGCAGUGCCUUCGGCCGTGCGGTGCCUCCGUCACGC (mixed, 2'-OMe at 1-4,8-18,20,22,27,28,30,33,34,36-39, rest deoxy; PS between 19 and 20; 3'-idT) [ARC1367] , please.
Result: 13.9

Ask: Look up Kd: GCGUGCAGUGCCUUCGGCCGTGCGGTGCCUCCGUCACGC (mixed, 2'-OMe at 1-4,8-18,20,22,27,28,30,33,34,36-39, rest deoxy; PS between 29 and 30; 3'-idT) [ARC1376]
Result: 4.4
